Overview of recorded Ki for various compounds
system.name: MOPr (Homo sapiens)
Construct: host or cells: CHO
Sequence (P35372 whole entry): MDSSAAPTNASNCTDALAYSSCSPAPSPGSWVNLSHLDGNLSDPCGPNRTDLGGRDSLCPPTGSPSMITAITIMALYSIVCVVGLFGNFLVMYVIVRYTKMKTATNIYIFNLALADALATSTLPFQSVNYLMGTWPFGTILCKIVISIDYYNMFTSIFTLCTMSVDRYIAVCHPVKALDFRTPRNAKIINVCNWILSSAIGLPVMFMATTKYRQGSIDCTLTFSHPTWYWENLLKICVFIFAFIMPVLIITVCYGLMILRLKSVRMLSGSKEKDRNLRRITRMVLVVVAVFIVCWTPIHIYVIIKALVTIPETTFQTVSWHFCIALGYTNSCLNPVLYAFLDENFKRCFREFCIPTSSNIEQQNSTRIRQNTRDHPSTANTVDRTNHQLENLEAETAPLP
experiment.summary: biochemical
Type: binding
details: [3H]-diprenorphine, CHO membranes, n = 3, mean ± SEM
readout.kind: Ki (nM)

> print(dat)
                               smiles.entry  value.observed
1  CN1CC[C@]23c4c5ccc(O)c4O[C@H]2C(=O)/C(=C/c2ccc(Br)cc2)C[C@@]3(O)[C@H]1C5            39.9
2  COc1ccc(/C=C2\C[C@@]3(O)[C@H]4Cc5ccc(O)c6c5[C@@]3(CCN4C)[C@@H](O6)C2=O)cc1              11
3  CN1CC[C@]23c4c5ccc(O)c4O[C@H]2C(=O)/C(=C/c2ccc(Cl)cc2)C[C@@]3(O)[C@H]1C5            23.8
4  CN1CC[C@]23c4c5ccc(O)c4O[C@H]2C(=O)/C(=C/c2ccc(O)cc2)C[C@@]3(O)[C@H]1C5            22.7
5  CN1CC[C@]23c4c5ccc(O)c4O[C@H]2C(=O)/C(=C/c2ccc4ccccc4c2)C[C@@]3(O)[C@H]1C5             1.3
6  CN1CC[C@]23c4c5ccc(O)c4O[C@H]2C(=O)/C(=C/c2ccc([N+](=O)[O-])cc2)C[C@@]3(O)[C@H]1C5             0.9
7  CN1CC[C@]23c4c5ccc(O)c4O[C@H]2C(=O)/C(=C/c2ccc(F)cc2)C[C@@]3(O)[C@H]1C5            19.9
